- Test system: C. elegans
- Condition description: Table S2, C. elegans SS assay, 110 μM, 0 h, averages of 4 data points
Measured attribute: Percentage of motility inhibition 0 h (%)

1. CN[C@@H]1[C@H](O[C@H]2[C@H](O[C@H]3[C@H](O)[C@@H](O)[C@H](NC(=N)N)[C@@H](O)[C@@H]3NC(=N)N)O[C@@H](C)[C@]2(O)CO)O[C@@H](CO)[C@H](O)[C@H]1O.CN[C@@H]1[C@H](O[C@H]2[C@H](O[C@H]3[C@H](O)[C@@H](O)[C@H](NC(=N)N)[C@@H](O)[C@@H]3NC(=N)N)O[C@@H](C)[C@]2(O)CO)O[C@@H](CO)[C@H](O)[C@H]1O.O=S(=O)(O)O.O=S(=O)(O)O.O=S(=O)(O)O [Dihydrostreptomycin (sulfate)]; 0
2. COc1cc2c(cc1O)C1Cc3ccc(OC)c(O)c3C[N+]1(C)CC2.[Cl-] (stereo not drawn) [Cyclanoline (chloride)]; 7
3. C=C1[C@@H]2CCC3[C@@](CC[C@@H]4[C@H](C(=O)O)C[C@@H](O[C@@H]5O[C@H](CO)[C@@H](OS(=O)(=O)[O-])[C@H](OS(=O)(=O)[O-])[C@H]5OC(=O)CC(C)C)C[C@@]34C)(C2)[C@@H]1O.[K+].[K+] (stereo partly drawn) [Atractyloside (potassium salt)]; 29
4. CN1C2=C3N=c4ccccc4=C3CCN2C(=O)c2ccccc21.Cl [Dehydroevodiamine (hydrochloride)]; 8
5. CC1=C(C(=O)O)N2C(=O)[C@@H](NC(=O)[C@H](N)c3ccccc3)[C@H]2SC1.O [Cephalexin (monohydrate)]; 8
6. COc1ccc([C@@H]2CC(=O)c3c(O)cc(O[C@@H]4O[C@H](CO)[C@@H](O)[C@H](O)[C@H]4O[C@@H]4O[C@@H](C)[C@H](O)[C@@H](O)[C@H]4O)cc3O2)cc1O [Neohesperidin]; 14
7. COC(=O)C1=CO[C@@H](O[C@@H]2O[C@H](CO)[C@@H](O)[C@H](O)[C@H]2O)[C@@H]2[C@@H](C)CC(=O)[C@]12O [Hastatoside]; 0
8. CC(=O)OC[C@H]1O[C@@H](O[C@@H]2[C@@H](O)[C@H](O[C@@H]3[C@H](O)C(C)(C)C[C@H]4C5=CC[C@@H]6[C@@]7(C)CC[C@H](O[C@@H]8O[C@H](C(=O)O)[C@@H](O)[C@H](O)[C@H]8O[C@@H]8O[C@H](CO)[C@H](O)[C@H](O)[C@H]8O[C@@H]8O[C@H](CO)[C@@H](O)[C@H](O)[C@H]8O)[C@](C)(CO)[C@@H]7CC[C@@]6(C)[C@]5(C)CC[C@@]34C)OC[C@@H]2O)[C@H](OC(C)=O)[C@@H](OC(C)=O)[C@@H]1OC(C)=O [Soyasaponin Ab]; 21
9. COc1ccc(-c2cc(=O)c3c(OC)cc(OC)cc3o2)cc1 [5,7,4'‐Trimethoxyflavone]; 0
10. CCCCCCCCCCCCCCCCCCOC(=O)[C@@]1(C)CC[C@]2(C)CC[C@]3(C)C(=CC(=O)[C@@H]4[C@@]5(C)CC[C@H](O)C(C)(C)[C@@H]5CC[C@]43C)[C@@H]2C1 [Stearyl glycyrrhetinate]; 0
11. COC(=O)c1ccc(O)cn1 [Methyl 5‐hydroxypyridine‐2‐carboxylate]; 7
12. CCCCCCCCCCCC(=O)O [Lauric acid]; 58

* * *

- Tested on: C. elegans
- Test name: microbe, parasite or virus in culture
- Condition description: Caenorhabditis elegans, 0 h, read-out: Percentage of motility inhibition 0 h, Table S2, C. elegans SS assay, 110 μM, 0 h, averages of 4 data points
Measured attribute: inhibition at 110 µM (%)

1. C/C1=C\C[C@]2(C(C)C)CC[C@@](C)(O2)[C@@H](O)CC/C(C)=C/CC1 [Incensole]; 2
2. O=c1cc[nH]c(=O)[nH]1 [Uracil]; 0
3. O=C1O[C@H]([C@@H](O)CO)C(O)=C1O [L-Ascorbic acid]; 5
4. Clc1ccccc1C(c1ccccc1)(c1ccccc1)n1ccnc1 [Clotrimazole]; 6
5. COc1c(-c2ccc3cc(NS(C)(=O)=O)ccc3c2)cc(-n2ccc(=O)[nH]c2=O)cc1C(C)(C)C [ABT‐333]; 40
6. N[C@@H](CO)C(=O)O [L-Serine]; 0

* * *

- System: C. elegans
- Test name: microbe, parasite or virus in culture
- Condition description: Caenorhabditis elegans, 0 h, read-out: Percentage of motility inhibition 0 h, Table S2, C. elegans SS assay, 110 μM, 0 h, averages of 4 data points
Criterion: inhibition at 110 µM meeting or surpassing 20%. Met: fulfilled. Not met: not fulfilled.

1. CCC(=O)O[C@@H]1CC(=O)O[C@H](C)C/C=C/C=C/[C@H](O)[C@H](C)C[C@H](CC=O)[C@H](O[C@@H]2O[C@H](C)[C@@H](O[C@H]3C[C@@](C)(O)[C@@H](OC(=O)CC)[C@H](C)O3)[C@H](N(C)C)[C@H]2O)[C@H]1OC; not fulfilled
2. COc1ccc(CCC(=O)c2c(O)cc(O[C@@H]3O[C@H](CO)[C@@H](O)[C@H](O)[C@H]3O[C@@H]3O[C@@H](C)[C@H](O)[C@@H](O)[C@H]3O)cc2O)cc1O [Neohesperidin dihydrochalcone]; not fulfilled
3. CC(=O)O[C@@H]1C(=O)C2=C(C(=O)C[C@H]3C(C)(C)C(=O)CC[C@]23C)[C@]2(C)C(=O)C[C@H]([C@H](C)CC(=O)CC(C)C(=O)O)[C@@]12C (stereo partly shown); not fulfilled
4. O=c1cc(-c2ccccc2)oc2ccc(O)cc12 [6‐Hydroxyflavone]; not fulfilled
5. O=[N+]([O-])c1cn2c(n1)OC[C@@H](OCc1ccc(OC(F)(F)F)cc1)C2; fulfilled
6. COC(=O)C1=CC[C@@]23CC[C@@H]([C@@](C)(/C=C/C=C(\C)C(=O)O)OC2=O)[C@@]3(O)CC1; fulfilled
7. CC(C)=CCC[C@@H](C)[C@@H]1CC[C@]2(C)C3=C(CC[C@@]12C)[C@@]1(C)CC[C@H](O)C(C)(C)[C@@H]1CC3; not fulfilled
8. CC1(C)C[C@@H](O)[C@]2(C)CC[C@]3(C)C(=CC[C@@H]4[C@@]5(C)CC[C@H](O)[C@](C)(CO)[C@@H]5CC[C@]43C)[C@@H]2C1; not fulfilled
9. COc1ccc2[nH]cc(CCNC(C)=O)c2c1; fulfilled
10. C=C1CCC[C@]2(C)C[C@]3(O)OC(=O)C(C)=C3C[C@@H]12 [Atractylenolide III]; not fulfilled

* * *

- Tested on: C. elegans
- Condition description: Table S2, C. elegans SS assay, 110 μM, 0 h, averages of 4 data points
The following molecules are listed with their measured Percentage of motility inhibition 0 h values.
Measured attribute: Percentage of motility inhibition 0 h (%)

1. O=C([O-])CC(O)(CC(=O)[O-])C(=O)[O-].[Na+].[Na+].[Na+] [Citric acid (trisodium)]; 8
2. CC(=O)OCC1=C(C(=O)O)N2C(=O)[C@@H](N)[C@H]2SC1; 3
3. COC(=O)[C@H]1[C@H]2C[C@H]3c4[nH]c5ccccc5c4CCN3C[C@H]2CC[C@@H]1O.Cl [Rauwolscine (hydrochloride)]; 7
4. COc1ccc(-c2cc(=O)c3c(O)cc(O[C@@H]4O[C@H](CO)[C@@H](O)[C@H](O)[C@H]4O[C@@H]4O[C@@H](C)[C@H](O)[C@@H](O)[C@H]4O)cc3o2)cc1O; 14
5. CC1(C)OC2CC(=O)OCC23C1CC(=O)C1(C)C2=CC(=O)OC(c4ccoc4)C2(C)CCC13 (stereo not shown); 9
6. COC(=O)C[C@](O)(CCCC(C)(C)O)C(=O)O[C@@H]1C(OC)=C[C@]23CCCN2CCc2cc4c(cc2[C@H]13)OCO4; 12
7. COc1ccc(-c2coc3cc(O)cc(O)c3c2=O)cc1; 7

* * *

Listed next: entries and their corresponding Percentage of motility inhibition 0 h.
- System: C. elegans
- Condition description: Table S2, C. elegans SS assay, 110 μM, 0 h, averages of 4 data points
Measured attribute: Percentage of motility inhibition 0 h (%)

1) CC(=O)Oc1c(C)c(C)c2c(c1C)CCC(C)(CCC[C@H](C)CCC[C@H](C)CCCC(C)C)O2 (stereo partly drawn) [D-α-Tocopherol acetate]; 7
2) CC(C)=CCc1c(O)ccc(C(=O)[C@@H]2[C@@H](c3c(O)cc(O)c4c(=O)c(CC=C(C)C)c(-c5ccc(O)cc5O)oc34)C=C(C)C[C@H]2c2ccc(O)cc2O)c1O; 11
3) C=C(C)C(=O)O[C@H]1[C@@H]2[C@H](C)C(=O)O[C@@H]2C[C@@H](C)[C@@H]2C=CC(=O)[C@]21C [Arnicolide D]; 16
4) CC(C)=CCCC(C)(OC1OC(CO)C(O)C(O)C1O)C1CCC2(C)C1C(O)CC1C3(C)CC(O)C(OC4OC(CO)C(O)C(O)C4OC4OC(CO)C(O)C(O)C4O)C(C)(C)C3CCC12C (centres unmarked) [Gypenoside XLVI]; 1
5) CC1(C)CC[C@]2(C(=O)O)[C@H](O)C[C@]3(C)C(=CC[C@@H]4[C@@]5(C)C[C@H](O)[C@H](O[C@@H]6O[C@H](CO)[C@@H](O)[C@H](O)[C@H]6O)C(CO)(CO)[C@@H]5CC[C@]43C)[C@@H]2C1; 0
